- Study system: ALDH3A1 (Homo sapiens (Human), UniProt P30838)
- Sequence (P30838 whole entry): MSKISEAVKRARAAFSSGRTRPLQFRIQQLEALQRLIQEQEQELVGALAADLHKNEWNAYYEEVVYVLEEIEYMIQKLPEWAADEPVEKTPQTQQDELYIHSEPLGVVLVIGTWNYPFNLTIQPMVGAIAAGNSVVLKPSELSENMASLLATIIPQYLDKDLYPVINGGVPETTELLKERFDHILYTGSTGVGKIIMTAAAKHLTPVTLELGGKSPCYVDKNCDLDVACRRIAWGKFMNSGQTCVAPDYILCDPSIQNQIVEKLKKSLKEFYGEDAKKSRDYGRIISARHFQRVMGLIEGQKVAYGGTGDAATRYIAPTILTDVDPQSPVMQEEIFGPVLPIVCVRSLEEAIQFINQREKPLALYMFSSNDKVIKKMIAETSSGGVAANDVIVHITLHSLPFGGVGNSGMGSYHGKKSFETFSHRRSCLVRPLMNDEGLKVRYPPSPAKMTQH
- Particulars: read-out: IC50 (micromolar) ALDH3A1; Table 4, hits from ChemDiv screen
With a cut-off of 10 µM, any IC50 strictly below it is called Yes; any IC50 meeting it or above is called No.

In [3]: df
Out[3]:
                                   molecule  qualitative_label
0  O=C1Nc2ccccc2C12Oc1ccccc1C1CC(c3ccccc3)=NN12 (centres unmarked)                 No
1  CCOC(=O)CN1C(=O)C(O)(CC(=O)c2ccncc2)c2ccccc21 (centres unmarked)                Yes
2  CCCC1C(C#N)=C(SCC(=O)c2ccc(Br)cc2)NC(C)=C1C(C)=O (centres unmarked)                 No
3  O=C(NC(O)C(=O)c1cccs1)c1ccncc1 (centres unmarked)                Yes
4  Cc1cccc(C(=O)CN2CCN(S(=O)(=O)c3cc(Cl)ccc3Cl)CC2)c1                 No

Task: IC50 under 10 µM? Item: CCSc1nnc2c(n1)OC(C(=O)c1ccc(OC)cc1)Nc1ccccc1-2 (centres unmarked)
Result: Yes

Task: Given the entry CCn1c(-c2ccc(OC)c(F)c2)cs/c1=N/c1ccccc1 , would its reported IC50 be below 10 µM?
Result: No

Task: Below 10 µM on IC50? Entry CCOC(=O)CN1C(=O)C(O)(CC(=O)c2ccccn2)c2ccccc21 (centres unmarked)
Result: No

Task: Take the molecule Cc1ccc(S(=O)(=O)NC(O)C(=O)c2cccs2)cc1 (centres unmarked) and say whether its IC50 is less than 10 µM.
Result: Yes

Task: Quick check: does CCCSc1nnc2c(n1)OC(C(=O)c1ccc(OC)cc1)Nc1ccccc1-2 (centres unmarked) have IC50 under 10 µM?
Result: Yes

---

Entries and their pIC50 values follow.
- Study system: ALDH3A1 (Homo sapiens (Human))
- Particulars: read-out: IC50 (micromolar) ALDH3A1; Tables 1A/1B; benzaldehyde substrate; S.D. for three assays in parentheses
# log scale: pIC50 equals minus log10 of the concentration in mol/L

# count of solved cases: 3
>>> print(df.to_string())
                                   molecule  obs_value
0  Cc1ccc(Nc2ccc(S(C)(=O)=O)cc2[N+](=O)[O-])cc1F [Compound 8]       4.97
1  CNS(=O)(=O)c1ccc(Nc2ccc(OC)cc2)c([N+](=O)[O-])c1 [Compound 10]       4.50
2  CNS(=O)(=O)c1ccc(Nc2ccc(OC(F)F)cc2)c([N+](=O)[O-])c1 [Compound 11]       4.61

Now take the following molecule into account.
Task: Query pIC50 for CNS(=O)(=O)c1ccc(Nc2ccc(F)cc2)c([N+](=O)[O-])c1 [Compound 2]
Result: 4.59

---

// endpoint IC50 / system UniProt P00352
Sequence (P00352 whole entry): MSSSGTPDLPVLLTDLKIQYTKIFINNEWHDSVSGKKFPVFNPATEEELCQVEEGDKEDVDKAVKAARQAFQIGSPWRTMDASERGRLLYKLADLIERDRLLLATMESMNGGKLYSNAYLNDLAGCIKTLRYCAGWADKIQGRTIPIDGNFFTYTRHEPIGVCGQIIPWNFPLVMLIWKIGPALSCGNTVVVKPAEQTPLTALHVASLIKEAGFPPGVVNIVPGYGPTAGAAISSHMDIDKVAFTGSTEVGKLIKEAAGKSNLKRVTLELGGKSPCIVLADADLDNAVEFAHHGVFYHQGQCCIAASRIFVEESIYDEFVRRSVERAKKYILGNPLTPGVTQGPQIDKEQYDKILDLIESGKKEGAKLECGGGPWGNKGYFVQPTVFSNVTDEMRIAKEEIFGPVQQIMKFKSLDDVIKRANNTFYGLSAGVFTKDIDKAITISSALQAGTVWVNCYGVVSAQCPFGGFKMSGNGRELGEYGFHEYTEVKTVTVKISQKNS
Provide the reading as a plain figure in µM.

Here are 5 compounds together with their reported answers.
>>> df
                                   compound  obs_value
0  O=C(NC(O)C(=O)c1cccs1)c1ccncc1 (centres unmarked)        4.2
1  CCSc1nnc2c(n1)OC(C(=O)c1ccc(OC)cc1)Nc1ccccc1-2 (centres unmarked)        8.2
2  CCOC(=O)CN1C(=O)C(O)(CC(=O)c2ccncc2)c2ccccc21 (centres unmarked)        0.8
3  Cc1cccc(C(=O)CN2CCN(S(=O)(=O)c3cc(Cl)ccc3Cl)CC2)c1         33
4  O=C1Nc2ccccc2C12Oc1ccccc1C1CC(c3ccccc3)=NN12 (centres unmarked)        6.5

Task: Retrieve IC50 on UniProt P00352; query Cc1ccc(S(=O)(=O)NC(O)C(=O)c2cccs2)cc1 (centres unmarked)
Result: 4

Task: Please report IC50 with UniProt P00352 for item CCn1c(-c2ccc(OC)c(F)c2)cs/c1=N/c1ccccc1 .
Result: 6.3

Task: Report the value of IC50 obtained on UniProt P00352 for CCCC1C(C#N)=C(SCC(=O)c2ccc(Br)cc2)NC(C)=C1C(C)=O (centres unmarked) .
Result: 10.4

Task: Quote IC50 with test system UniProt P00352 for CCCSc1nnc2c(n1)OC(C(=O)c1ccc(OC)cc1)Nc1ccccc1-2 (centres unmarked)
Result: 21.2

Task: Report measured IC50 on UniProt P00352; entry: CCOC(=O)CN1C(=O)C(O)(CC(=O)c2ccccn2)c2ccccc21 (centres unmarked)
Result: 0.7

Task: Given O=C(NC(O)C(=O)c1cccs1)c1cccnc1 (centres unmarked) , report its IC50 on UniProt P00352.
Result: 5.9
